target: T1, 383 amino acid recombinant tau (UniProt P10636-6 1-383, biotinylated where printed as biotin-rTau383 (position not given)); assay: Octet
T1 construct: also called rTau383
T1 sequence (P10636 other isoform, or with tags, fused parts or gaps limits assumed): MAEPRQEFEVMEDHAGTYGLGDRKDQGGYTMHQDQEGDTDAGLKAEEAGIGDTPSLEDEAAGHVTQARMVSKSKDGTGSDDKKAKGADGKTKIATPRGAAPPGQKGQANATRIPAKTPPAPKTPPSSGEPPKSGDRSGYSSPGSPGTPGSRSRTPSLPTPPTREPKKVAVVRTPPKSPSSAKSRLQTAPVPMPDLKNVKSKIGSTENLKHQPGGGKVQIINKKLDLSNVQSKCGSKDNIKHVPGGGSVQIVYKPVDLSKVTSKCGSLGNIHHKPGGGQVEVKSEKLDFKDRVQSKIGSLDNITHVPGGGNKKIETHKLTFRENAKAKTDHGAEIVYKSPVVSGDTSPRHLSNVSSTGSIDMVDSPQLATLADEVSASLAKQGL
QUANTITY_KIND: koff
The answer consists of two parts: a number and, after it, its unit.

1) VH1/Vk3 (antibody, V domains shown, member of the group m7; also called humanized IPN002 variant VH1/Vk3) VH: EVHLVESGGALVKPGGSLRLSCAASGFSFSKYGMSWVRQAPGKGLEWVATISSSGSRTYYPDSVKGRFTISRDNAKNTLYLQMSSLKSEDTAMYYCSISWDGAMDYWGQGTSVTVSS VL: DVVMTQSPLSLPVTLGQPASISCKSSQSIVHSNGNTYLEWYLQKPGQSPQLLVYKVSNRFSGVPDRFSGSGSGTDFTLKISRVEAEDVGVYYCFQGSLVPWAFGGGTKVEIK : 0.000233 s⁻¹

Query binder follows.
q: If you can, please state the reported koff value of IPN002 (antibody, V domains shown, It is the murine parental antibody; also called IPN2; IPN-2) VH: EVHLVESGGALVKPGGSLKLSCAASGFSFSKYGMSWVRQTPDKRLEWVATISSSGSRTYYPDSVKGQFTISRDNAKNTLYLQMSSLKSEDTAMYYCSISWDGAMDYWGQGTSVTVSS VL: DVLMTQTPLSLPVSLGDQASISCKSSQSIVHSNGNTYLEWYLQKPGQSPKLLVYKVSNRFSGVPDRFSGSGSGTDFTLKISRVEAEDLGTYYCFQGSLVPWAFGGGTKLEIK .
a: 4.78e-05 s⁻¹
